target or test system: T1, human IL-33 (Genentech, huIL33.his) (human, UniProt O95760 112-270)
T1 sequence (looked up): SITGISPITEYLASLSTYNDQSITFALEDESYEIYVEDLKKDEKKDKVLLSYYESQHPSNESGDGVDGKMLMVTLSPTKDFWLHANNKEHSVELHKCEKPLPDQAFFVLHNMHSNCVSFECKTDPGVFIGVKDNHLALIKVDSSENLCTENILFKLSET
assay info: SPR Biacore
pKd: −log10 of the molar value.
met means recorded pKd is 10 or above; not met means it is below 10.

Query string: Test whether the binder 10H2.36.F10.30V.54D (antibody, V domains shown, Humanized variant of 10H2) VH: EVQLVESGGGLVQPGGSLRLSCAASGFTFSNYWMNWVRQAPGKGLEWMAEITLKFNDYSTHYAESVKGRFTISRDNSKNTVYLQMNSLRAEDTAVYYCARRNYGNWYINVWGQGTLVTVSS VL: DIVMTQSPDSLAVSLGERATINCRASESVDKFGVSFLNWYQQKPGQPPKLLIFVASSQGSGVPDRFSGSGSGTDFTLTISSLQAEDVAVYYCQQSKDIPYTFGQGTKVEIK records pKd of 10 or higher.
Result string: not met

Query string: Test whether the binder 2B6.54S (antibody, V domains shown, Humanized variant of 2B6) VH: EVQLVQSGAEVKKPGASVKVSCKASGYTFSDYNMNWVRQAPGQGLESIGDINPKSGDTFYNQNFKDRATLTIDKSTSTAYLELSSLRSEDTAVYYCARHYYYGSSYGGFVYWGQGTLVTVSS VL: DIQMTQSPSSLSASVGDRVTITCHASQNINVWLSWYQQKPGKNPKLLIYAASKLHTGVPSRFSGSGSGTDFTLTISSLQPEDFATYYCQQGQSYPLTFGQGTKVEIK records pKd of 10 or higher.
Result string: not met

Query string: Test whether the binder 10C12.38.H6.87Y.58I (antibody, V domains shown) VH: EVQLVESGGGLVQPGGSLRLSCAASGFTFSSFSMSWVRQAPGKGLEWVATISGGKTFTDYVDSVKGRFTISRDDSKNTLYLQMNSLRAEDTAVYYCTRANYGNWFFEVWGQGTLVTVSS VL: EIVLTQSPATLSLSPGERATLSCRASESVAKYGLSLLNWFQQKPGQPPRLLIFAASNRGSGIPARFSGSGSGTDFTLTISSLEPEDFAVYYCQQSKEVPFTFGQGTKVEIK records pKd of 10 or higher.
Result string: met

Query string: Test whether the binder 2B6 (antibody, V domains shown, Murine hybridoma clone (Balb/C)) VH: EVLLQQSGPELVKPGASVKISCNASGYTFSDYNMNWVKQSHGKSLESIGDINPKNGDTFYNQNFKDKATLTIDKSSSTVYMELRSLTSEDTAMYYCARHYYYGSSYGGFVYWGQGTLVTVAA VL: DIQMNQSPSSLSASLGDTITITCHASQNINVWLSWYQQKAGNNPKLLIYAASKLHTGVPSRFTGSGSGTLFTLTISSLQPEDIATYYCQQGQSYPLTFGSGTNLELK records pKd of 10 or higher.
Result string: met

Query string: Test whether the binder 4G12.FW4 (antibody, V domains shown, Derivative of 4G12) VH: ELQLQESGPGLVKPSETLSLTCTVSGGSIRSSIFYWGWIRQPPGKGLEWIGSIYYSGRTYYNPSLKSRVTISVDTSKNQFSLMLTSVTAADTAVYYCARAGGLYNWNDESFSFYMDVWGQGTTVTVSS VL: EIVLTQSPGTLSLSPGERATLSCRASQSFSSSYLAWYQQKPGQAPRLLIYGASSRATGIPDRFSGSGSGTDFTLTISRLEPEDFAVYYCQQYDRSPLTFGGGTKVEIK records pKd of 10 or higher.
Result string: met
